test system: STAPHYLOCOCCUS AUREUS CMX 553; test: In vitro antibacterial activity, MIC, BHI agar dilution; type: cell-based; conditions: S. aureus CMX 553, unit assumed
Reported values of MIC for individual entries

Item CC[C@H]1OC(=O)[C@H](C)C(=O)[C@H](C)[C@@H](O[C@@H]2O[C@H](C)C[C@H](N(C)C)[C@H]2O)[C@](C)(OC)C[C@@H](C)C2=NC3CN(CCc4ccc(N)cc4)CC3N3C(=O)O[C@@]1(C)[C@H]3[C@H]2C (stereo partly shown) : provide MIC
0.78 µg/mL

---

Reported values of MIC for individual entries
test system: STAPHYLOCOCCUS AUREUS CMX 553; experiment: In vitro antibacterial activity, MIC, BHI agar dilution; type: cell-based; conditions: S. aureus CMX 553, unit assumed
Report as a plain number; the unit mg/L is understood.

Example results:
// fetch MIC for CC[C@H]1OC(=O)[C@H](C)C(=O)[C@H](C)[C@@H](O[C@@H]2O[C@H](C)C[C@H](N(C)C)[C@H]2O)[C@](C)(OC)C[C@@H](C)C2=N[C@@H]3CN(Cc4ccccc4)C[C@@H]3N3C(=O)O[C@@]1(C)[C@H]3[C@H]2C ; system: STAPHYLOCOCCUS AUREUS CMX 553
0.78

// fetch MIC for C#CCN1CC2N=C3[C@H](C)C[C@@](C)(OC)[C@H](O[C@@H]4O[C@H](C)C[C@H](N(C)C)[C@H]4O)[C@@H](C)C(=O)[C@@H](C)C(=O)O[C@H](CC)[C@@]4(C)OC(=O)N(C2C1)[C@@H]4[C@H]3C (stereo partly shown) ; system: STAPHYLOCOCCUS AUREUS CMX 553
0.78

// fetch MIC for CC[C@H]1OC(=O)[C@H](C)C(=O)[C@H](C)[C@@H](O[C@@H]2O[C@H](C)C[C@H](N(C)C)[C@H]2O)[C@](C)(OC)C[C@@H](C)C2=NC[C@H](CSCc3ccccc3)N3C(=O)O[C@@]1(C)[C@H]3[C@H]2C ; system: STAPHYLOCOCCUS AUREUS CMX 553
0.2

---
// fetch MIC for CC[C@H]1OC(=O)[C@H](C)C(=O)[C@H](C)[C@@H](O[C@@H]2O[C@H](C)C[C@H](N(C)C)[C@H]2O)[C@](C)(OC)C[C@@H](C)C2=N[C@H](COCc3ccc(C(=O)OC)cc3)CN3C(=O)O[C@@]1(C)[C@H]3[C@H]2C ; system: STAPHYLOCOCCUS AUREUS CMX 553
0.2
